Where do the numbers come from? From ChEMBL document CHEMBL1629525.

Target: Metabotropic glutamate receptor 2 (Rattus norvegicus, UniProt P31421)
Sequence (P31421 whole entry): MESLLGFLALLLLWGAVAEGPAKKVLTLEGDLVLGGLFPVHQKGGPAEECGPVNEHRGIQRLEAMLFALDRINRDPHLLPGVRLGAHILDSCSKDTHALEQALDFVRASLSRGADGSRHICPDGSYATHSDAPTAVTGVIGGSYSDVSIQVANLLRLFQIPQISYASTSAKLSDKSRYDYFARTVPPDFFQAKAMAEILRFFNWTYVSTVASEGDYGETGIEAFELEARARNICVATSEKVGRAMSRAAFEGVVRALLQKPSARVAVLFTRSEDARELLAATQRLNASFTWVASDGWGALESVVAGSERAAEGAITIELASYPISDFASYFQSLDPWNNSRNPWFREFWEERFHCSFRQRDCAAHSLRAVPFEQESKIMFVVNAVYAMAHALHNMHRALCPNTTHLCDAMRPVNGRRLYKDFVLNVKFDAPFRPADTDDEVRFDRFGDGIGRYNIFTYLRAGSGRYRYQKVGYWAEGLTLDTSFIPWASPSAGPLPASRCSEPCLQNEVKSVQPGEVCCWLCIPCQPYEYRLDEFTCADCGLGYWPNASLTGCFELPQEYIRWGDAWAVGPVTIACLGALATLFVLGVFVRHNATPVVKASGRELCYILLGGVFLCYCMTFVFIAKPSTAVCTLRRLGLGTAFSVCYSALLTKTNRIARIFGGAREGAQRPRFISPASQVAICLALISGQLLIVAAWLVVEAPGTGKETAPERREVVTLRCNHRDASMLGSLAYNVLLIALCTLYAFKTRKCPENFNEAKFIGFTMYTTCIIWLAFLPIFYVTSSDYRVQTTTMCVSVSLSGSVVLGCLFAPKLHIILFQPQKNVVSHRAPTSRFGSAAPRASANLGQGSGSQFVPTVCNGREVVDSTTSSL
Assay: Partial displacement of [3H]LY354740 from recombinant rat mGluR2
Readings of IC50 for the listed compounds

[
  {
    "COMPOUND_STRUCTURE_STRING": "Cc1cc2c(cc1C(F)(F)F)NC(=O)CC(c1cccc(-n3cncn3)c1)=N2",
    "IC50 / nM": 8
  },
  {
    "COMPOUND_STRUCTURE_STRING": "O=C1CC(c2cccc(-c3ccncc3)c2)=Nc2ccc(Cl)cc2N1",
    "IC50 / nM": 8
  },
  {
    "COMPOUND_STRUCTURE_STRING": "CCc1cc(-c2cccc(C3=Nc4cc(C)c(C(F)(F)F)cc4NC(=O)C3)c2)ccn1",
    "IC50 / nM": 8
  },
  {
    "COMPOUND_STRUCTURE_STRING": "Cc1cc2c(cc1C(F)(F)F)NC(=O)CC(c1cccc(-c3ccnc(C4CC4)c3)c1)=N2",
    "IC50 / nM": 10
  },
  {
    "COMPOUND_STRUCTURE_STRING": "Cc1cc2c(cc1C(F)(F)F)NC(=O)CC(c1cccc(-c3ccnc(CO)c3)c1)=N2",
    "IC50 / nM": 13
  },
  {
    "COMPOUND_STRUCTURE_STRING": "Cc1cc2c(cc1C(F)(F)F)NC(=O)CC(c1cccc(-c3ccnc(Cc4ccccc4)c3)c1)=N2",
    "IC50 / nM": 16
  },
  {
    "COMPOUND_STRUCTURE_STRING": "Cc1cc2c(cc1C(F)(F)F)NC(=O)CC(c1cccc(-c3ccncn3)c1)=N2",
    "IC50 / nM": 6
  },
  {
    "COMPOUND_STRUCTURE_STRING": "CCc1ccc(-c2cccc(C3=Nc4cc(C)c(C(F)(F)F)cc4NC(=O)C3)c2)cn1",
    "IC50 / nM": 9
  },
  {
    "COMPOUND_STRUCTURE_STRING": "COc1cc(-c2cccc(C3=Nc4cc(C)c(C(F)(F)F)cc4NC(=O)C3)c2)ccn1",
    "IC50 / nM": 13
  },
  {
    "COMPOUND_STRUCTURE_STRING": "Cc1cc(-c2cccc(C3=Nc4cc(C)c(C(F)(F)F)cc4NC(=O)C3)c2)cc(CO)n1",
    "IC50 / nM": 14
  }
]
